METHOD_DESCRIPTION: in vitro
CONDITION_CONTEXT: human, Caco-2
READOUT_TYPE: Papp A→B (nm/s)
Please give a number only; it is taken to be in nm/s.

The compound identified as Cc1[nH]nc(-c2ccncc2)c1-c1ccc(-c2cccc(S(N)(=O)=O)c2)c(C2CC2)c1 registered its Papp A→B at 88
